- PARTICULARS: crosslinker bond; DBMB
Label rule, in plain words: ring closure, isolated yield of 50% and up is Yes, under 50% is No.

1) H-SPCKGRHHNC-NH2 + DBMB : Yes
2) H-SSWPARCLHQDLC-NH2 + DBMB : No
3) H-SHCDYYC-NH2 + DBMB : No
4) H-SYCKPFC-NH2 + DBMB : Yes
5) H-SPCKAGTGQC-NH2 + DBMB : No
6) H-SYCKADC-NH2 + DBMB : No
7) H-SPCKGPSATC-NH2 + DBMB : No
8) H-SPCAKGMNYC-NH2 + DBMB : No

---

- PARTICULARS: crosslinker bond; DBMB
MEASURED ENDPOINT: ring closure, isolated yield

1) H-SWDYRECYLEC-NH2 + DBMB : 12%
2) H-SFCDWYGC-NH2 + DBMB : 10%
3) H-SHCVWWDC-NH2 + DBMB : 16%
4) H-SQCKRAHAEC-NH2 + DBMB : 10%
5) H-STCQGECGGG-NH2 + DBMB : 19%
6) H-SYCKRAHKNC-NH2 + DBMB : 32%
7) H-SHDCYLEC-NH2 + DBMB : 27%
8) H-SICRFFCGGG-NH2 + DBMB : 46%

---

- ASSAY NAME: Proteolytic stability in Pronase
- PARTICULARS: Streptomyces griseus, Pronase (protease mixture) in PBS, pH 7.4
*1 amine or outer side, *2 acyl side, *3 side chain or, on linkers, in order; H or OH if unused. Where a SMILES comes first, the peptide text is derived from it. Bridges are numbered along the chain shown (N, C = ends). X2 = O=C(C=NOCc1cc(C[*:2])cc(C[*:3])c1)[*:1]
MEASURED ENDPOINT: remaining at 5 h, 100 µM (%)

1. CC(C)C[C@@H]1NC(=O)[C@H](Cc2ccc(O)cc2)NC(=O)[C@@H]2CSCc3cc(cc(c3)CSC[C@@H](C(N)=O)NC(=O)[C@H](CCC(=O)O)NC1=O)CON=CC(=O)N[C@@H](Cc1c[nH]c3ccccc13)C(=O)N[C@@H](CC(=O)O)C(=O)N[C@@H](Cc1ccc(O)cc1)C(=O)N[C@@H](CCCNC(=N)N)C(=O)N[C@@H](CCC(=O)O)C(=O)N2 [TSL-1-SWDYRECYLEC] (WDYRECYLEC-NH2; linker N-6-10 via X2) : 82
2. CC(C)C[C@@H]1NC(=O)[C@H](Cc2ccc(O)cc2)NC(=O)[C@@H]2CSCc3cc(cc(c3)CSC[C@@H](C(N)=O)NC(=O)[C@H](CCC(=O)O)NC1=O)CON=CC(=O)N[C@@H](Cc1c[nH]cn1)C(=O)N[C@@H](CC(=O)O)C(=O)N2 [6c] (HDCYLEC-NH2; linker N-3-7 via X2) : 83

Where these numbers come from: paper PMC8294009
